Origin of the recorded values: patent US20230183239A1

Molecular target: ENPP1 (Homo sapiens, UniProt P22413)
Sequence (P22413 1-925): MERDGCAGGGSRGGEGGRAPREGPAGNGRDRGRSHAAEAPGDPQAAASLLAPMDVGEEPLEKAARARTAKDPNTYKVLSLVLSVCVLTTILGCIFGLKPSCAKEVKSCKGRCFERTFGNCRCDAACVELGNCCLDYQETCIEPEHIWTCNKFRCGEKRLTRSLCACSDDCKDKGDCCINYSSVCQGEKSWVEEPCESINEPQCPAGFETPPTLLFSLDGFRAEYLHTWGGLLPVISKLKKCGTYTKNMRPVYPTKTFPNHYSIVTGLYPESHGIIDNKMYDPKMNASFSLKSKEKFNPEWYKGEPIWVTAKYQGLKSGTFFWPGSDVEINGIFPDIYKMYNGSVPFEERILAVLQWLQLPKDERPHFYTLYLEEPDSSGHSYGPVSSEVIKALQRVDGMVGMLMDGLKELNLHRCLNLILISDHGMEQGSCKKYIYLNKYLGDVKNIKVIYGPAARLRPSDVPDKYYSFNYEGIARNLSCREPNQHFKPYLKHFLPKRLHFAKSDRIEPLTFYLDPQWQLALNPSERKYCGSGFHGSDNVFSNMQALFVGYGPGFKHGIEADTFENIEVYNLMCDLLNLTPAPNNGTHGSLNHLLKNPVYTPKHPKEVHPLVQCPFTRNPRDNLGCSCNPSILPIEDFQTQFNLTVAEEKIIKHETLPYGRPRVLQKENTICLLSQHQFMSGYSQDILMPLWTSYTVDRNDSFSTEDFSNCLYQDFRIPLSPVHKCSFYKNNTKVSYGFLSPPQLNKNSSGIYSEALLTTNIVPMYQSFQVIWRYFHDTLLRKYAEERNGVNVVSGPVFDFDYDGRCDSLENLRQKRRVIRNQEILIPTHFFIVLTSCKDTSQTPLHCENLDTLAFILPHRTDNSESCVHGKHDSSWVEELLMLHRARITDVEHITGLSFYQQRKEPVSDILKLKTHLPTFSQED
Assay: Indirect quantitation of 2',3'-cGAMP hydrolysis (AMP-Glo Assay kit)
Type: biochemical
Settings: cGAMP substrate; Ki from IC50 by Cheng-Prusoff; read-out: ENPP1 Inhibition -cGAMP: Ki
pKi: −log10 of the molar value.
quantity kind: pKi

COc1cc2ncn(-c3ccc(CNS(N)(=O)=O)cc3)c2cc1OC ... > 7.00
CNC(=O)c1cc(Oc2ccc(NS(N)(=O)=O)cc2)ccn1 ... < 6.00
COc1cc2ncc(-c3ccc4c(c3)CN(S(N)(=O)=O)CC4)c(Cl)c2cc1OC ... > 7.00
Cc1cncnc1N1CCC(CCNS(N)(=O)=O)CC1 ... < 6.00
COc1cc2c(-c3ccc4c(c3)CN(S(N)(=O)=O)CC4)c(C#N)cnc2cn1 ... < 6.00
COc1cc2ncnc(-c3ccc(S(N)(=O)=O)cc3)c2cc1OC ... < 6.00
NS(=O)(=O)NCCC1CCN(c2ncnc3c2CCN(Cc2ccccc2)C3)CC1 ... < 6.00
COc1cc2nc(N)nc(N3CCC(CCNS(N)(=O)=O)CC3)c2cc1OC ... > 7.00

---

target: UniProt P22413; assay: Indirect quantitation of 2',3'-cGAMP hydrolysis (AMP-Glo Assay kit); type: biochemical; conditions: cGAMP substrate; Ki from IC50 by Cheng-Prusoff; read-out: ENPP1 Inhibition -cGAMP: Ki
pKi: −log10 of the molar value.
quantity kind: pKi

COc1cc2ncnc(N3CCC(CCNS(=O)(=O)Nc4ccccc4)CC3)c2cc1OC ... < 6.00
COc1ccc2c(N3CCc4cc(NS(N)(=O)=O)ccc43)c(C)cnc2c1 ... > 7.00
NC(=O)c1ccc2nccc(N3CCC(CCNS(N)(=O)=O)CC3)c2c1 ... < 6.00
COc1ccc2c(-c3ccc(CNS(N)(=O)=O)cc3)c(C(F)(F)F)cnc2c1 ... > 7.00
COc1cc2ncnc(N3CCC(CCNC(C)=O)CC3)c2cc1OC ... 6.00 to 7.00
COc1cc2ncc(C#N)c(-c3ccc(CN(C4CC4)S(N)(=O)=O)cc3)c2cc1OC ... > 7.00
COc1cc2nccc(Oc3ccc(S(N)(=O)=O)cc3)c2cn1 ... > 7.00
NS(=O)(=O)N1CCc2ccc(-c3ccnc4cc(F)ccc34)cc2C1 ... > 7.00
NS(=O)(=O)Nc1ccc(Oc2ccnc3cc(F)ccc23)cc1 ... < 6.00
COc1cc2nccc(Oc3ccc(NS(=O)(=O)c4ccccc4)cc3)c2cc1OC ... > 7.00
COc1ccc2ncc(C#N)c(-c3ccc(CNS(N)(=O)=O)cc3)c2c1 ... > 7.00
COc1cc2nccc(N3CCCc4cc(NS(N)(=O)=O)ccc43)c2cc1OC ... 6.00 to 7.00

---

Target: ENPP1 (Homo sapiens)
Sequence (P22413 1-925): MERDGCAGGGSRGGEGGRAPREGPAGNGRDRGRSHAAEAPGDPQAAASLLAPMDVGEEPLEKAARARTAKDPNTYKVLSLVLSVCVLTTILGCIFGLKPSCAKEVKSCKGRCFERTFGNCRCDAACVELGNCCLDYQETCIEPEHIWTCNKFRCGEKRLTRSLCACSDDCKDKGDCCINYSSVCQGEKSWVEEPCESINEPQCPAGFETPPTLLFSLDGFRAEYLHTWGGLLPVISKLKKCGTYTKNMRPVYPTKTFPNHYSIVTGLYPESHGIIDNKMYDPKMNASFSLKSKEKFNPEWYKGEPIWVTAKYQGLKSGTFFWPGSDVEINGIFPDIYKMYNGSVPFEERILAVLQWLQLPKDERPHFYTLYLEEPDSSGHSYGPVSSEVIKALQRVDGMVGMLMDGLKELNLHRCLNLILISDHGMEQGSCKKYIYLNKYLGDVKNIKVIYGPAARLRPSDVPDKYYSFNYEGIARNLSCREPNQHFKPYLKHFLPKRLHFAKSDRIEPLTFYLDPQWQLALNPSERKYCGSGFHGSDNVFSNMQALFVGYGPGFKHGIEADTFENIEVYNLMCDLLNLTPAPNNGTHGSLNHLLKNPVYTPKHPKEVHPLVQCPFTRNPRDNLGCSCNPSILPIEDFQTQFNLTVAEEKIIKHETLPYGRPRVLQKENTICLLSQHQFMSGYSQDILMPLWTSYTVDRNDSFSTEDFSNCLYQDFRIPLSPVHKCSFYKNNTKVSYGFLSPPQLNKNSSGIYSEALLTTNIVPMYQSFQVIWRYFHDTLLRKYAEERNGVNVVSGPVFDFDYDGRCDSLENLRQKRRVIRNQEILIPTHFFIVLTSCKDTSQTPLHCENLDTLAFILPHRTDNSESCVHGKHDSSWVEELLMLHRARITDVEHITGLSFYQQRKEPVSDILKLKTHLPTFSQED
Test: Indirect quantitation of 2',3'-cGAMP hydrolysis (AMP-Glo Assay kit)
Assay type: biochemical
Details: cGAMP substrate; Ki from IC50 by Cheng-Prusoff; read-out: ENPP1 Inhibition -cGAMP: Ki
quantity kind: Ki

COc1ccc2c(Oc3ccc(S(N)(=O)=O)cc3)c(C)cnc2c1 ... < 0.1 µM
COc1ccc2c(N3CCc4cc(NS(N)(=O)=O)ccc43)ccnc2c1F ... 0.1 to 1 µM
COc1cc2nccc(-c3ccc(CNS(N)(=O)=O)nc3)c2cc1OC ... < 0.1 µM
COc1cc2ncnc(N3CCC(CCn4nnc(N)n4)CC3)c2cc1OC ... 0.1 to 1 µM
COc1ccc2c(Oc3ccc4c(c3)CCCN4S(N)(=O)=O)ccnc2c1 ... < 0.1 µM
COc1cc2nccc(C(=O)N3CCC(CCNS(N)(=O)=O)CC3)c2cc1OC ... > 1 µM
COc1ccc2c(N3CCc4c3ccc(NS(N)(=O)=O)c4F)ccnc2c1 ... < 0.1 µM
NS(=O)(=O)NCCC1CCN(c2ncnc3ccc(OC(F)(F)F)cc23)CC1 ... > 1 µM
Cn1cnc2ncnc(-c3ccc(CNS(N)(=O)=O)cc3)c21 ... 0.1 to 1 µM
COc1cc2nccc(N3CC4(C3)CN(S(N)(=O)=O)C4)c2cc1OC ... 0.1 to 1 µM
COc1cc2ncnc(N3CCC(CCNS(=O)(=O)NC(C)C)CC3)c2cc1OC ... > 1 µM
COc1ccc2c(NCc3ccc(S(N)(=O)=O)cc3)ncnc2c1 ... < 0.1 µM
COc1cc2ncnc(NCc3ccc4c(c3)OCO4)c2cc1OC ... > 1 µM
NS(=O)(=O)NCCC1CCN(c2ncnc3ccccc23)CC1 ... 0.1 to 1 µM

---

molecular target: ENPP1 (Homo sapiens, UniProt P22413); test: ENPP1 enzyme assay with AMP-pNP substrate (hydrolysis of ATP analog); format: biochemical; details: AMP-pNP substrate (ATP analog); Ki from IC50 by Cheng-Prusoff; read-out: ENPP1 Inhibition _AMP-pNP: Ki
pKi: −log10 of the molar value.
Parameter pKi: see the listing below.
quantity kind: pKi

COc1ccc2c(NC(C)c3ccc(NS(N)(=O)=O)cc3)ncnc2c1 (stereo not shown) [Example 279] ... 6.00 to 7.00
COc1cc2ncn(-c3ccc(CCNS(N)(=O)=O)cc3)c2cc1OC [Example 217] ... < 6.00
COc1cc2ncnc(NCc3ccc(S(N)(=O)=O)cc3)c2cc1F [Example 259] ... > 7.00
COc1cc2ncnc(-c3ccc4c(c3)CN(S(N)(=O)=O)CC4)c2cc1OC [Example 32] ... > 7.00
